# Assay summary: Drug metabolism in PBS buffer assessed as H2S release by measuring time required for 50% of maximum H2S release at steady state at 1 mM after 30 mins in presence of 4 mM L-cysteine by amperometric method
# Format: physicochemical
# Condition set: 0.5 h, 1000 µM
Experimental endpoint: Time (min)

[A] COc1ccc(-n2sc(=O)n(-c3ccc(OC)cc3)c2=O)cc1
[B] O=c1sn(-c2ccc(F)cc2)c(=O)n1-c1ccccc1
Among A and B , which shows a numerically higher Time result? # reply format: chosen label
A
(A: 14.8 min, B: 9.52 min)
